test system: KM12; assay: NCI tumour cell line growth inhibition, 48 h
Activity calls are given as the source filed them. No stated cut-off is given here; in the data, active = GI50 up to about 1.1 µM and inactive = higher.
Pick from class 1 (active), class 0 (inactive) when you respond.

The examples below pair each entry with its known result.
# compound, class-name
measured = [
    ("N=c1c2c(ncn1N)Oc1c(c(-c3ccccc3)nn1-c1ccccc1)C2c1ccc(Cl)cc1 (centres undefined)", "class 0"),
    ("S=C1Nc2cnc3ccccc3c2SC1c1ccccc1 (centres undefined)", "class 0"),
    ("c1ccc(N2CCN(CCN3CCc4c([nH]c5ccccc45)C3c3cccnc3)CC2)cc1 (centres undefined)", "class 0"),
    ("Cc1ccc(C2c3c(n(C)c(=O)n(C)c3=O)OC(N(C)C)(N(C)C)C2(F)F)cc1 (centres undefined)", "class 0"),
    ("CCOC(=O)c1cc2cc3c4c(c2oc1=O)CCCN4CCC3", "class 0"),
    ("COC(=O)c1c(C(=O)OC)c2ccccn2c1-c1cc(OC)c(Br)c(=O)o1", "class 0"),
    ("CC(C)(CNC(=O)/C(Cl)=C(/Cl)C(=O)O)CNC(=O)/C(Cl)=C(/Cl)C(=O)O", "class 0"),
    ("CC(=O)OCC(=O)[C@@]1(O)CC[C@H]2[C@@H]3CCC4=CC(=O)[C@H](C)C[C@]4(C)[C@H]3[C@@H](O)C[C@@]21C", "class 0"),
]

Query: What classification did "C/C1=C/C[C@@H](/C(C)=C/c2csc(C)n2)OC(=O)C[C@H](O)C(C)(C)C(=O)[C@H](C)[C@@H](O)[C@@H](C)CCC1" end up with in this test?
Result: class 1
